- MEASURED_TARGET: full length human SIRPα v1 with a small beta-gal fragment (ED) fused to its C-terminal, expressed in K562 … (human, UniProt P78324 31-504)
- Sequence (P78324 31-504): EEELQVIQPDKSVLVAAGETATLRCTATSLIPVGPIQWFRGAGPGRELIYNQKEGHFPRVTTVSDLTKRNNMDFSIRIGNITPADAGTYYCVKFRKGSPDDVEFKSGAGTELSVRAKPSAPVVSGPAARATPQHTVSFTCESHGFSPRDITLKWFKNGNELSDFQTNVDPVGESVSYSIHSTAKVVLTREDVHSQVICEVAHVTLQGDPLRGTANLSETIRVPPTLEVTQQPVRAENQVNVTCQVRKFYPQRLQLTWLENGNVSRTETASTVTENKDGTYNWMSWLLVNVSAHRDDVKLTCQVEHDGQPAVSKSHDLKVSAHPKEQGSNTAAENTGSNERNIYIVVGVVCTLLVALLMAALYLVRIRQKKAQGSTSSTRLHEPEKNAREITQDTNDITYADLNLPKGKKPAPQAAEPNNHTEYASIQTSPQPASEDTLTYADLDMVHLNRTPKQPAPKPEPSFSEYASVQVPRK
- PROTOCOL_SUMMARY: cell-based or functional assay
Reported SHP-1 recruitment blocking, TOP blocking (%) by item:
QUANTITY_NAME: SHP-1 recruitment blocking, TOP blocking (%)

{"columns": ["BINDER", "RECORDED_NUMBER"],
 "data": [
  ["hu025.033 (antibody, V domains shown, Humanized 025) VH: EVQLVQSGAEVKKPGATVKISCKVSGFNIKDYYMHWVQQAPGKGLEWIGRIDPEDAETKYAPKFQGRVTITADTSTDTAYMELSSLRSEDTAVYYCDRGLAYWGQGTLVTVSS VL: EIVLTQSPATLSLSPGERATLSCSASSSVSSSYLYWYQQKPGQAPKLWIYSTSNLASGIPARFSGSGSGTDYTLTISSLEPEDFAVYYCHQWSSYPYTFGQGTKLEIK", 84.5],
  ["025c (antibody, V domains shown, also called chimeric antibody 025c; parental antibody of 025c) VH: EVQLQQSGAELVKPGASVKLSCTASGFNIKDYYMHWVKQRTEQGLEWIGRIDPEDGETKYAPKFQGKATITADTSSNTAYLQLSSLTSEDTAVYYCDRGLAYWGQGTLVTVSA VL: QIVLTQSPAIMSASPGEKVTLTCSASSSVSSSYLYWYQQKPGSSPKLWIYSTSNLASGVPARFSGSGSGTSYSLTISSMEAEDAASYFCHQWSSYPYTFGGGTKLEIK", 87]
]}
